Each record here notes measured Ki.
Biological target: Sigma non-opioid intracellular receptor 1 (Cavia porcellus)
Sequence (Q60492 whole entry): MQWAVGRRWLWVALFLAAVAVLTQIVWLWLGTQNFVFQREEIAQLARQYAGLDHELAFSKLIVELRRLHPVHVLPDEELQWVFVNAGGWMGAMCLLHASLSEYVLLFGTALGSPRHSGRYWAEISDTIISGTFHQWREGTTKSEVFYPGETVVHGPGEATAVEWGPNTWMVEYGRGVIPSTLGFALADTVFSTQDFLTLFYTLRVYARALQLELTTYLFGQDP
Test: Displacement of [3H](+)-pentazocine from sigma1 opioid receptor in guinea pig brain by solid scintillation counting
quantity.name: Ki (µM)

| record.smiles | quantity.name | reported.value |
| --- | --- | --- |
| COc1ccc(CN2C[C@@H]3CCC(=O)[C@H]2CN3CC=C(C)C)cc1 | Ki | 0.02 |
| CCCN1C[C@@H]2C(=O)CC[C@H]1CN2Cc1ccc(OC)cc1 | Ki | 0.325 |
| COc1ccc(CN2C[C@H]3CCC(=O)[C@@H]2CN3CC=C(C)C)cc1 | Ki | 0.017 |
| COc1ccc(CN2C[C@@H]3CCC(=O)[C@H]2CN3Cc2ccccc2)cc1 | Ki | 0.053 |
| COc1ccc(CN2C[C@H]3CCC(=O)[C@@H]2CN3Cc2ccccc2)cc1 | Ki | 0.133 |
| CCCN1C[C@H]2C(=O)CC[C@@H]1CN2Cc1ccc(OC)cc1 | Ki | 0.067 |
| COc1ccc(CN2C[C@@H]3CCC(=O)[C@H]2CN3c2ccccc2)cc1 | Ki | 6.25 |
